Literature survey of log10 of IC50 (system: Epidermal growth factor receptor (Homo sapiens, UniProt P00533)).
Kindly note that the scale is log10 and the underlying IC50 is in µM.

As a guide, the following entries are already answered.
> print(dat)
                                   molecule  experimental.value
1  Cc1cccc(CN(Cc2ccc(F)cc2)C(=O)Nc2ccccc2)c1O                1.34
2  O=S(=O)(c1ccc(/N=C/c2cc(Br)ccc2O)cc1)N1CCCCC1                0.99
3             COc1cc2c(cc1OC)Nc1ncnc(O)c1C2                1.88
4  C=CC(=O)N1CCC[C@@H](n2nc(-c3ccc(Oc4ccc(Cl)cc4)cc3)c(C(N)=O)c2N)C1               -1.82
5  O=C1CCN(Cc2ccn3ncnc(Nc4ccc5c(cnn5Cc5cccc(F)c5)c4)c23)CCN1               -0.62
6  O=C1CSC(N/N=C/c2ccc([N+](=O)[O-])cc2)=N1                0.83

Lab note: COc1c(CO)cccc1-c1cc2c(N[C@H](C)c3ccccc3)ncnc2s1 gave log10 of IC50 of -2.82

Lab note: C[S+]([O-])c1cc(NCc2c[nH]cn2)cc2c(Nc3ccc(F)c(Cl)c3)c(C#N)cnc12 (stereo not given) gave log10 of IC50 of 0.70
